# System: mouse MAGL (Mus musculus)
# Test summary: In vitro MAGL inhibition assay (2-AG hydrolysis followed by mass spectrometry)
# Assay type: biochemical
# Run parameters: Supporting Information Tables S1-S5; read-out: IC50 mMAGL
pIC50: −log10 of the molar value.
Measurement label: pIC50

{"columns": ["Smiles code", "Measurement label", "Reported"],
 "data": [
  ["CN1/C(=C\\C=C\\C2=[N+](CCCCCC(=O)NCCOc3ccccc3CC3CC4(C3)CN(C(=O)N3CC5(COC(=O)N5)C3)C4)c3ccccc3C2(C)C)C(C)(C)c2ccccc21", "pIC50", 9.92],
  ["O=C1CO[C@H]2CCN(C(=O)N3CC(COCc4ccccc4OCCCCCNC(=O)OCc4ccccc4)C3)C[C@H]2N1", "pIC50", 6.84],
  ["O=C1CO[C@H]2CCN(C(=O)N3CC(COCc4ccccc4OCCCNC(=O)OCc4ccccc4)C3)C[C@H]2N1", "pIC50", 8.15]
]}

###

# System: mouse MAGL (Mus musculus, UniProt O35678)
# Sequence (O35678 whole entry): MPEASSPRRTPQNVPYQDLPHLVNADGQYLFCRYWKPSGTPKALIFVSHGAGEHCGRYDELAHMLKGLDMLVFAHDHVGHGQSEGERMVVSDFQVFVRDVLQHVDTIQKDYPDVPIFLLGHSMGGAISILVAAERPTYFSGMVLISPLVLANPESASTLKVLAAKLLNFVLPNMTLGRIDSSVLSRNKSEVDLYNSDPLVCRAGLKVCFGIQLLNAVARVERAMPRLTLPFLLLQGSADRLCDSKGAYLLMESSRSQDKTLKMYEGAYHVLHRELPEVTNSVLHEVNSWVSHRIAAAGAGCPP
# Test summary: In vitro MAGL inhibition assay (2-AG hydrolysis followed by mass spectrometry)
# Assay type: biochemical
# Run parameters: Table 2; mean of three independent measurements ± SD; read-out: mMAGL IC50±SD
Reported IC50 by item:

{"columns": ["Compound", "IC50 / nM"],
 "data": [
  ["O=C(NCCCCCOc1ccccc1CC1CC2(C1)CN(C(=O)O[C@H](CO)C(F)(F)F)C2)O[C@H]1CC/C=C/CCC1", 0.42],
  ["O=C1NC2(CO1)CN(C(=O)N1CC3(CC(Cc4ccccc4OCCNc4ccc([N+](=O)[O-])c5c4NON5)C3)C1)C2", 0.12],
  ["CN(C)c1ccc2c(c1)[Si](C)(C)c1cc(N(C)C)ccc1C21OC(=O)c2ccc(C(=O)NCCCCCOc3ccccc3CC3CC4(C3)CN(C(=O)N3CC5(COC(=O)N5)C3)C4)cc21 (centres unmarked)", 0.16],
  ["C#CCCCC(=O)NCCOc1ccccc1CC1CC2(C1)CN(C(=O)OC(C(F)(F)F)C(F)(F)F)C2", 0.13],
  ["CN(C)c1ccc2c(c1)[Si](C)(C)c1cc(N(C)C)ccc1C21OC(=O)c2ccc(C(=O)NCCCCCOc3ccccc3CC3CC4(C3)CN(C(=O)OC(C(F)(F)F)C(F)(F)F)C4)cc21 (centres unmarked)", 1.35]
]}

###

# System: mouse MAGL (Mus musculus)
# Test summary: In vitro MAGL inhibition assay (2-AG hydrolysis followed by mass spectrometry)
# Format: biochemical
# Run parameters: Table 1; n=1 to 3; read-out: mMAGL IC50
Reported IC50 by item:

{"columns": ["Molecule", "Unit abbrev", "IC50"],
 "data": [
  ["O=C(NCCOc1ccccc1COCC1CN(C(=O)OC(C(F)(F)F)C(F)(F)F)C1)OCc1ccccc1 [Compound 7]", "pM", 850],
  ["O=C(NCCOc1ccccc1COCC1CN(C(=O)N2CC3(COC(=O)N3)C2)C1)OCc1ccccc1 [Compound 5]", "pM", 590],
  ["O=C1NC2(CO1)CN(C(=O)N1CC3(CC(Cc4ccccc4OCCNc4ccc([N+](=O)[O-])c5c4NON5)C3)C1)C2 [Compound 8]", "pM", 110]
]}

###

# System: mouse MAGL (Mus musculus)
# Test summary: In vitro MAGL inhibition assay (2-AG hydrolysis followed by mass spectrometry)
# Type: biochemical
# Run parameters: Table 1; n=1 to 3; read-out: mMAGL IC50
pIC50: −log10 of the molar value.
Reported pIC50 by item:
Measurement label: pIC50

{"columns": ["Molecule", "Measurement label", "Reported"],
 "data": [
  ["O=C1CO[C@H]2CCN(C(=O)N3CC(COCc4ccccc4OCCNC(=O)OCc4ccccc4)C3)C[C@H]2N1 [Compound 3]", "pIC50", 8.27],
  ["O=C1CO[C@H]2CCN(C(=O)N3CC(COCc4cccc(OCCNC(=O)OCc5ccccc5)c4)C3)C[C@H]2N1 [Compound 2]", "pIC50", 7.01],
  ["O=C1NC2(CO1)CN(C(=O)N1CC(COCc3ccccc3OCCNc3ccc([N+](=O)[O-])c4nonc34)C1)C2 [Compound 6]", "pIC50", 8.99],
  ["O=C1CO[C@H]2CCN(C(=O)N3CC(COCc4ccccc4)C3)C[C@H]2N1 [Compound 1]", "pIC50", 6.28]
]}
